B1: EEHEE_rd4_0647 (parent)
chain: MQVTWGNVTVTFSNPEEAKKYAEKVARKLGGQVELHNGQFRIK

Variants of: B1
test description: folding stability dG (cDNA display proteolysis); higher = more stable
assay setup: PBS, room temperature
readout kind: folding stability dG (kcal/mol)
Unit kcal/mol implied. Number only.

Returns the measured folding stability dG for the input variant. Input: W5I
2.61

What would you report for Q39F ?
2.23

Entry to check: Q32A
2.52

Can you handle S13Y next?
2.38

Record: H36I
3.34

Try this variant too: Q2D
2.46

Likewise for E17F ?
2.47

Here is the next variant: I42C
1.95

Please do the same for Q2Y as well.
2.23

What do you get for Q39E ?
2.72

Check K43E too.
2.28

Cool, now G6C
3.2

Thanks! And N7T ?
2.67

// repeat for A26R and report
1.38

What do we get for N7G ?
2.58

Note, next up: V8P
0.417

Same question, H36Y this time
2.79

And the next one, E23I ?
2.71

Please give the result for W5L too.
2.12

Another variant: G30T
1.34

Try this variant next: E17G
1.97

# repeat for Q2G
2.12
